Cited source for all entries: PubChem BioAssay (Tox21)

Protocol summary: qHTS RealTime-Glo MT Cell Viability Assay in HEK293 cells - 32 hour (AID 1224868); further: top concentration of the series differs between compounds; nearly all actives have a fitted effect of over 50% in size
Test context: RealTime-Glo luminescence; series mostly up to 76.8 µM
Text: National Center for Advancing Translational Sciences [NCATS] NIH Chemical Genomics Center [NCGC] U.S. Environmental Protection Agency [EPA] National Institutes of Environmental Health Sciences [NIEHS] National Toxicology Program [NTP] U.S. Food and Drug Administration [FDA] Measure of cell viability is critical in the cell-base assay. Analysis of cell viability is necessary for the characterization of cell responses to cytotoxic drugs and environmental stress. […]
Records with an inconclusive call do not appear. Activity calls are given as the source filed them. The call rests on the fitted dose curve; in most records, active means well fitted cell-killing curve with a large enough effect in the repeat runs; inconclusive means weak or mixed curves, or effect the other way; inactive means flat fitted curve, though single readings scatter.
Measured quantity: outcome

The examples below pair each entry with its known result.
Molecule: CCC(CC)C(=O)O
outcome: inactive
//
Molecule: CCCCCCCCCCCCSCCOCCO
outcome: inactive
//
Molecule: C=CC(C)(O)CC/C=C(/C)CCC=C(C)C (stereo not given)
outcome: inactive
//
Molecule: COc1cc(C)c(Cc2cnc(N)nc2N)cc1OC
outcome: inactive
//
Molecule: O=C(O)COCC(=O)O
outcome: inactive
//
Molecule: CC(C)Oc1ccccc1O
outcome: inactive
//
Molecule: O=C(Nc1ccccc1)c1cc([N+](=O)[O-])ccc1Cl
outcome: inactive
//
Molecule: COC(=O)Cc1cccc2ccccc12
outcome: inactive

# context switch: different molecule, same outcome
Note outcome for the molecule shown: C/C(=C\C(C)CC(C)CC(C)C)C1CC(=O)OC1=O (stereo not given) inactive
